TEST_CONDITIONS: in n-propanol, 320.65 K

SAMPLE_SMILES: CC(=O)[C@@]12O[C@@H]1C[C@H]1[C@@H]3CCC4=CC(=O)CC[C@]4(C)[C@H]3CC[C@@]12C
solubility (mole fraction): 0.00908

----------
TEST_CONDITIONS: in DMSO, 344.65 K

SAMPLE_SMILES: CC(=O)[C@@]12O[C@@H]1C[C@H]1[C@@H]3CCC4=CC(=O)CC[C@]4(C)[C@H]3[C@H](O)C[C@@]12C
solubility (mole fraction): 0.0228

----------
TEST_CONDITIONS: in isopropanol, 297.95 K

SAMPLE_SMILES: CC(=O)[C@@]12O[C@@H]1C[C@H]1[C@@H]3CCC4=CC(=O)CC[C@]4(C)[C@H]3[C@H](O)C[C@@]12C
solubility (mole fraction): 0.000542
